Target: Hck (UniProt P08631)
Sequence (P08631 whole entry, looked up): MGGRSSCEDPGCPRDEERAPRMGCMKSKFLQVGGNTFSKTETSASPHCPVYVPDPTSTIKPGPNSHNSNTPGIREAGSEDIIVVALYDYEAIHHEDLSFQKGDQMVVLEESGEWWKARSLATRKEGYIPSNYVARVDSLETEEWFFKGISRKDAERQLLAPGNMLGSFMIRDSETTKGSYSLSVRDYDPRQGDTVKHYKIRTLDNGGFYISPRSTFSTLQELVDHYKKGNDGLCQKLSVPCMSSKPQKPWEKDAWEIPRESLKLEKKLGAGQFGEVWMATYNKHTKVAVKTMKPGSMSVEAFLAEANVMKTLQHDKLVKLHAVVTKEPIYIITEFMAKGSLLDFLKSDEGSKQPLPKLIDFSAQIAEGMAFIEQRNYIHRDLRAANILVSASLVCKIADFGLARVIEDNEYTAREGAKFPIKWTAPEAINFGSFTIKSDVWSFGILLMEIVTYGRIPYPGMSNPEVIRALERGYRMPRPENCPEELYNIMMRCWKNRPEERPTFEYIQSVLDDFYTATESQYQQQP
Assay: phosphorylation enrichment, bacterial display (enrichment ratio); higher = better substrate or ligand; peptides without Tyr show the background;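 note: 11-residue human phosphosite peptides and single-mutation variants displayed on the E. coli surface, counted by deep sequencing, each peptide's frequency after selection divided by its frequency in the unselected input library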;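 note: frequency after pTyr selection over input frequency; kinase dosed for 20-30% of maximal phosphorylation in three min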
Measured metric: phosphorylation enrichment

[[record]]
residue_sequence = "QPGDIYHQTWA [GBA_Y244]"
reported_value = 3.66

[[record]]
residue_sequence = "KYLENYLNCLL [PLD2_Y169_R172C]"
reported_value = 0.456

[[record]]
residue_sequence = "GGGGSYNNFGN [HNRNPA1_Y312_D314N]"
reported_value = 0.435

[[record]]
residue_sequence = "QEVLEYFMKQM [PIK3CA_Y1038_A1035V]"
reported_value = 0.95

[[record]]
residue_sequence = "QEALEYFMKQV [PIK3CA_Y1038_M1043V]"
reported_value = 0.416

[[record]]
residue_sequence = "TDDMRYPMKSE [TGDS_Y302_N298D]"
reported_value = 0.42

[[record]]
residue_sequence = "NNIDFYKKTTN [FGFR2_Y657_YF]"
reported_value = 0.435

[[record]]
residue_sequence = "SVTCTYSPALD [TP53_Y126_N131D]"
reported_value = 0.656

[[record]]
residue_sequence = "KELSSYKHLTL [SLIT2_Y776_N775S]"
reported_value = 0.445

[[record]]
residue_sequence = "SGFESYGSSSY [RPA2_Y9]"
reported_value = 0.474

[[record]]
residue_sequence = "LIHLHYIRKDY [BBS4_Y43]"
reported_value = 0.444

[[record]]
residue_sequence = "YCRHNYGAVES [HLA-DRB1_Y112_V114A]"
reported_value = 0.549

[[record]]
residue_sequence = "SRFQFYFQQKG [CHKB_Y381]"
reported_value = 0.551

[[record]]
residue_sequence = "KERNQYGEVMV [MMP21_Y347]"
reported_value = 0.507

[[record]]
residue_sequence = "NGPDVYVLPVT [AATK_Y93_L97V]"
reported_value = 0.776

[[record]]
residue_sequence = "PPAPRCHHSAV [LZTR1_Y119_Y119C]"
reported_value = 1.28

[[record]]
residue_sequence = "LLINKYGLSDH [SCP2_Y151_A155D]"
reported_value = 0.826

[[record]]
residue_sequence = "LHQSTYQRYDV [SLC7A14_Y693]"
reported_value = 0.505

[[record]]
residue_sequence = "VDSAHYKLLET [DTX3L_Y385]"
reported_value = 0.543

[[record]]
residue_sequence = "QSSEGYGLGDR [KIAA1210_Y564]"
reported_value = 0.989

[[record]]
residue_sequence = "NTYEKYLEEEY [TF_Y669_G671E]"
reported_value = 0.608

[[record]]
residue_sequence = "IGLHAYGDQFR [IDH1_Y135_R132L_YF]"
reported_value = 0.473

[[record]]
residue_sequence = "SKHRLYSDLQT [PTCHD1_Y84]"
reported_value = 0.422

[[record]]
residue_sequence = "REGAKYVSHCA [ASS1_Y113_G117C]"
reported_value = 0.489

[[record]]
residue_sequence = "LNPDGYEKAFE [CPXM2_Y427_YF]"
reported_value = 0.586

[[record]]
residue_sequence = "SEDANYMRVSC [TTC3_Y1288_K1289M]"
reported_value = 0.563

[[record]]
residue_sequence = "TLERHYKELQA [SPTBN2_Y834_E835K]"
reported_value = 0.375

[[record]]
residue_sequence = "SKDSAYVTWEP"
reported_value = 1.32

[[record]]
residue_sequence = "MPLTKYLKRIK [CNGB3_Y200_E199K]"
reported_value = 0.534

[[record]]
residue_sequence = "DSMQSYDLDYP [UNC13B_Y243]"
reported_value = 0.474

[[record]]
residue_sequence = "MRTMGYMPTEM [CABP5_Y62]"
reported_value = 0.456

[[record]]
residue_sequence = "PDSVDYPKKGY [CTSK_Y121_R122P]"
reported_value = 0.614

[[record]]
residue_sequence = "PLDGEYFTPQI [TP53_Y327_L330P]"
reported_value = 0.733

[[record]]
residue_sequence = "RSAGKYDVYLI [MECP2_Y120]"
reported_value = 0.878

[[record]]
residue_sequence = "EWKQNYEESQS [MYH7_Y1460_K1459N]"
reported_value = 0.605

[[record]]
residue_sequence = "QAPPIYLDVLG [NTRK1_Y791_V790I]"
reported_value = 2.11

[[record]]
residue_sequence = "KFLENYLNRLL [PLD2_Y169_YF]"
reported_value = 0.415

[[record]]
residue_sequence = "VHKEGYNKLNQ [ZNF676_Y98]"
reported_value = 0.381

[[record]]
residue_sequence = "SVVVTYEPPEV [TP53_Y220_P219T]"
reported_value = 0.697

[[record]]
residue_sequence = "PQAVRYIFTID [DCX_Y103_G100A_YF]"
reported_value = 0.673

[[record]]
residue_sequence = "YEEDSYVKRSQ [RET_Y905]"
reported_value = 0.49

[[record]]
residue_sequence = "KKRSVYIKVLF [CC2D2A_Y683_L684I]"
reported_value = 0.363

[[record]]
residue_sequence = "KIVQDYLEKFF [MMP8_Y36_T32I_YF]"
reported_value = 0.773

[[record]]
residue_sequence = "HSGLAYTMERS [GLUD1_Y512]"
reported_value = 0.383


Taken from the supplement of paper PMC10065799.
